Molecular target: Short transient receptor potential channel 4 (Mus musculus) (UniProt Q9QUQ5)
Sequence (Q9QUQ5 whole entry, looked up): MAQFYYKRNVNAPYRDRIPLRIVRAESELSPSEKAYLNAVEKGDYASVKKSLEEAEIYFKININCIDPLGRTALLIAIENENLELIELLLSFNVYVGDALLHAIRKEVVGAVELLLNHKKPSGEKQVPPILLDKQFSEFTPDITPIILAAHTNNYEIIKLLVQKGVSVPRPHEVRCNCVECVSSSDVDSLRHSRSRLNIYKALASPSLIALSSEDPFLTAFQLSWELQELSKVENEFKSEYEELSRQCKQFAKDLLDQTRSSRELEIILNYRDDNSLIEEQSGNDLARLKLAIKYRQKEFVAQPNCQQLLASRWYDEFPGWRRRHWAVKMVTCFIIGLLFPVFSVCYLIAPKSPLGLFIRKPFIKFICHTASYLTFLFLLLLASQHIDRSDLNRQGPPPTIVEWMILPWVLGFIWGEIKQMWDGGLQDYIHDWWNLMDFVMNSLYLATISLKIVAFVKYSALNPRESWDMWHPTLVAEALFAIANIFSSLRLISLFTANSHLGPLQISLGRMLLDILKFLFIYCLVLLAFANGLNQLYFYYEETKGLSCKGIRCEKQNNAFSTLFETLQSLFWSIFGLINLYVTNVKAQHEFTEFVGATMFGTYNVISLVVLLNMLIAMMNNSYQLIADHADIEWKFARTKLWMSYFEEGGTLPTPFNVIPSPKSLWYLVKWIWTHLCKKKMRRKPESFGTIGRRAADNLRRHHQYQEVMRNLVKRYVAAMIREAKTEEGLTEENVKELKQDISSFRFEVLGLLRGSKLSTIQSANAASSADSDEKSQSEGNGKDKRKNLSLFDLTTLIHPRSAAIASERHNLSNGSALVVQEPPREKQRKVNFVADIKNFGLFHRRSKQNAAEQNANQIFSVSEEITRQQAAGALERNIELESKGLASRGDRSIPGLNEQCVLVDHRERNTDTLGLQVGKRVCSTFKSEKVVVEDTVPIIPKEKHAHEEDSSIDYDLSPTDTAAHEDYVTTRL
Assay: blockers of DAMGO-evoked TRPC4 calcium flux – cell-based, second round, Fluo4, HEK293 TRPC4beta/mu-opioid, 1 µM, confirmation (AID 2637)
Details: at 1 µM
Calls of active or inactive are those of the source.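 Rule for the calls: active = calcium signal ratio cut to more than 3 SD under the fully stimulated control mean yet still positive, in both repeats and the primary screen; inactive = the rest.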
Allowed answers: 1.0 for active, 0.0 for inactive

Worked cases, answers included:
{"compound": "COC(=O)NCC(c1ccc2c(c1)OCO2)N1CCN(c2ccc(OC)cc2)CC1 (stereo not drawn)", "measured on": "Short transient receptor potential channel 4 (Mus musculus) (UniProt Q9QUQ5)", "class label": 0.0}
{"compound": "CCOC(=O)c1sc2c(c1C)c(=O)n(CCO)c(=O)n2Cc1ccccc1", "measured on": "Short transient receptor potential channel 4 (Mus musculus) (UniProt Q9QUQ5)", "class label": 0.0}
{"compound": "CC(C)(C)c1ccc(-c2nc3cc(N)ccc3o2)cc1", "measured on": "Short transient receptor potential channel 4 (Mus musculus) (UniProt Q9QUQ5)", "class label": 0.0}
{"compound": "CC1(C#CC[N+]2(C)CCCCC2)CCC2C(O1)c1ccccc1OC2(C)C (stereo not drawn)", "measured on": "Short transient receptor potential channel 4 (Mus musculus) (UniProt Q9QUQ5)", "class label": 0.0}
{"compound": "COC(=O)c1ccc(Nc2cc(C)nc3ccccc23)cc1", "measured on": "Short transient receptor potential channel 4 (Mus musculus) (UniProt Q9QUQ5)", "class label": 0.0}

**Q:** What classification did c1ccc(Cn2c(NCc3ccco3)nc3ccccc32)cc1 end up with in this test?
**A:** 1.0

**Q:** What classification did C/C(N)=C(/C#N)C(=O)COC(=O)C1CCC(C(C)(C)C)CC1 (stereo not drawn) end up with in this test?
**A:** 0.0

**Q:** What classification did O=C(COC(=O)Cn1cnc2ccccc2c1=O)Nc1ccccc1Sc1ccc(Cl)cc1 end up with in this test?
**A:** 1.0

====

Test: serotonin-gated TRPC4 signal block – cell-based, second counter screen, HEK293 TRPC4/5HT1a, Fluo-4, counter-screen for TRPC4 inhibitor project, confirmation (AID 434978)
Details: Fluo-4 calcium flux, at 10 µM, serotonin added to trigger calcium flux
Activity calls are given as the source filed them.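 The calls were made as follows: active = primary screen active whose calcium signal fell more than 3 SD beyond the full-serotonin control mean in both duplicate plates; inactive = the rest.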
Allowed answers: Yes (active), No (inactive)

**Q:** What classification did Cn1c(-c2ccc(F)cc2)cnc1NCc1ccc(F)cc1F end up with in this test?
**A:** Yes

**Q:** What classification did COc1ccc(F)cc1CN1CCN(C(=O)CCC(=O)Nc2nnc(C(C)C)s2)CC1 end up with in this test?
**A:** No

**Q:** What classification did Oc1ccccc1-c1cc(-c2ccco2)[nH]n1 end up with in this test?
**A:** No

**Q:** What classification did C/C(=C\c1cccc(Cl)c1Cl)C(=O)c1c(C)cc(C)[nH]c1=O end up with in this test?
**A:** No

**Q:** What classification did Cc1ccc(-c2cn(-c3ccccc3)c(SCC(N)=O)n2)cc1C end up with in this test?
**A:** No

====

System: transient receptor potential cation channel C4 beta (TRPC4), mouse
Experiment: TRPC4 cation channel opening, second retest – cell-based, second round, Fluo4, HEK293 TRPC4beta/mu-opioid, 1 µM, confirmation (AID 2461)
Conditions: Fluo4 calcium fluorescence, at 1 µM
Activity calls are given as the source filed them.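 How the source made its calls: active means primary screen active and over 50% activation in each of two duplicate runs; inactive means the rest.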
Allowed answers: active, inactive

Worked cases, answers included:
{"compound": "CCOC(=O)c1cc(=O)n(Cc2ccccc2C)c2ccccc12", "measured on": "transient receptor potential cation channel C4 beta (TRPC4), mouse", "class label": "inactive"}
{"compound": "CCOC(=O)C1CCN(C2CCN(C(=O)c3oc4c(C)c(C)ccc4c3C)CC2)CC1", "measured on": "transient receptor potential cation channel C4 beta (TRPC4), mouse", "class label": "inactive"}
{"compound": "CN(C)CCNC(=O)c1scc2c1CCCC2", "measured on": "transient receptor potential cation channel C4 beta (TRPC4), mouse", "class label": "inactive"}
{"compound": "CC(C)=CCN1CCN(Cc2cccc3nonc23)CC1CCO (stereo unspecified)", "measured on": "transient receptor potential cation channel C4 beta (TRPC4), mouse", "class label": "inactive"}
{"compound": "Oc1ccc(-c2csc(-c3ccccc3)n2)cc1O", "measured on": "transient receptor potential cation channel C4 beta (TRPC4), mouse", "class label": "inactive"}
{"compound": "CN1CCN(NC(=O)Nc2cc(Cl)cc(Cl)c2)CC1", "measured on": "transient receptor potential cation channel C4 beta (TRPC4), mouse", "class label": "inactive"}
{"compound": "CCc1ccc(OCC(=O)NC2CCCCC2)c(Br)c1", "measured on": "transient receptor potential cation channel C4 beta (TRPC4), mouse", "class label": "inactive"}
{"compound": "COc1cc2c(cc1OC)C(C)N(CCc1ccc(Cl)cc1)CC2 (stereo unspecified)", "measured on": "transient receptor potential cation channel C4 beta (TRPC4), mouse", "class label": "inactive"}

**Q:** What classification did CSc1nc(N2CCOCC2)c2c3c(sc2n1)CCCC3 end up with in this test?
**A:** inactive

**Q:** What classification did CCCCNc1c(-c2ccc(SC(C)CC)c(OC)c2)nc2ccc(C)cn12 (stereo unspecified) end up with in this test?
**A:** inactive

**Q:** What classification did COc1ccc(C(CNC(=O)Cc2cccs2)N(C)C)cc1 (stereo unspecified) end up with in this test?
**A:** active
